Molecular target: SpCas9 (Streptococcus pyogenes serotype M1)
Sequence (Q99ZW2 whole entry): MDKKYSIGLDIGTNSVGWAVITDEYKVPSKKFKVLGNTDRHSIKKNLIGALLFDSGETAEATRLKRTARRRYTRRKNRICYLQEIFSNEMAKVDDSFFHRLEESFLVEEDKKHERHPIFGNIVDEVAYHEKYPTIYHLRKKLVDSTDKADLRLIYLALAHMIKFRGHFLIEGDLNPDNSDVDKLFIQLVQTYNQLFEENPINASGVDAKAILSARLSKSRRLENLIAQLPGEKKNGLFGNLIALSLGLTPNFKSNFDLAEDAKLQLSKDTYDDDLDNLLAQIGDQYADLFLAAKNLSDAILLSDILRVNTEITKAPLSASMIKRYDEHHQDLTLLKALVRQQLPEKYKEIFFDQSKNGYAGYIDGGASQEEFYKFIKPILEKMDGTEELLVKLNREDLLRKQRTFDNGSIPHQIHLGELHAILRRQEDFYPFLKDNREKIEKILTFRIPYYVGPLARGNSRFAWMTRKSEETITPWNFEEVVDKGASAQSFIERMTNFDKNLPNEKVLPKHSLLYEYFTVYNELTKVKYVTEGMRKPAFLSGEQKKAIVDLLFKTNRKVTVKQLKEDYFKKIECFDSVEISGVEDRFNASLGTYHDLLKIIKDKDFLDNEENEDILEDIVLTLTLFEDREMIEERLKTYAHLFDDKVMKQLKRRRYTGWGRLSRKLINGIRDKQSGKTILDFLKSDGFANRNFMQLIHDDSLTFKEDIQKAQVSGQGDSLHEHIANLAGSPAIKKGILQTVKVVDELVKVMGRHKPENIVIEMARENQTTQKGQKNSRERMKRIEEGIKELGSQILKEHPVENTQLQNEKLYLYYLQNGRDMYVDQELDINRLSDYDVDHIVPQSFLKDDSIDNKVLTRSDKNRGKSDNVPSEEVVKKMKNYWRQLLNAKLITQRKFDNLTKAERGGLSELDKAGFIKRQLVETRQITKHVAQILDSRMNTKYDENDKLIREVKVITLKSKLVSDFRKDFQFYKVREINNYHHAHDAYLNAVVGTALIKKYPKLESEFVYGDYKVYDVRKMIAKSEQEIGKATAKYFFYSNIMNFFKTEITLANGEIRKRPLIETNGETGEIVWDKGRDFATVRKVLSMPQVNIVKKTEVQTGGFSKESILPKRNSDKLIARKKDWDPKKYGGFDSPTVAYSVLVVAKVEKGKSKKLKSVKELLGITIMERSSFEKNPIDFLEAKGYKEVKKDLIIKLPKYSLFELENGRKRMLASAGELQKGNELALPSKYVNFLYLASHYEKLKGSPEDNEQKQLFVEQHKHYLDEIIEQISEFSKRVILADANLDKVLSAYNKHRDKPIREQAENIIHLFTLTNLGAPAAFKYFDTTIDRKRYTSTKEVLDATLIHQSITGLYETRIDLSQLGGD
Assay: eGFP disruption assay, SpCas9, U2OS.eGFP.PEST cells
Type: cell-based
Conditions: replicate 2, raw readout; Cas9 = lower control, Ctrl = upper control
SpCas9 eGFP disruption Rep2 strictly under 70 means rule met; at 70 or over means rule not met.

[ask] In the record for O=C(CSc1nccn1-c1cccc(F)c1)N1CCN(c2ccc(O)cc2)CC1 , is SpCas9 eGFP disruption Rep2 less than 70?
[reply] rule met

[ask] In the record for Cc1ccccc1C(=O)Nc1nc2ccc(S(N)(=O)=O)cc2s1 , is SpCas9 eGFP disruption Rep2 less than 70?
[reply] rule not met

[ask] In the record for O=C(NC1CCCCC1)c1cccc(Oc2cc(-c3ccccc3)ncn2)c1 , is SpCas9 eGFP disruption Rep2 less than 70?
[reply] rule not met

[ask] In the record for Cc1nc2ccccc2c(C)c1CC(=O)N1CCN(c2ccc(O)cc2)CC1 , is SpCas9 eGFP disruption Rep2 less than 70?
[reply] rule met

[ask] In the record for Cc1c(P(=S)(N2CCOCC2)N2CCOCC2)cc(C#N)n1C , is SpCas9 eGFP disruption Rep2 less than 70?
[reply] rule met

[ask] In the record for NC1=C(c2nc3ccccc3s2)C(=O)CN1N=Cc1ccc(-c2ccc(S(=O)(=O)Nc3ncccn3)cc2)o1 , is SpCas9 eGFP disruption Rep2 less than 70?
[reply] rule not met

[ask] In the record for Cc1ccccc1OCc1nn2c(C(C)(C)C)nnc2s1 , is SpCas9 eGFP disruption Rep2 less than 70?
[reply] rule met

---

Target: UniProt Q99ZW2
Assay: eGFP disruption assay, SpCas9, U2OS.eGFP.PEST cells
Assay type: cell-based
Details: EC50 in eGFP disruption assay, U2OS.eGFP.PEST, SpCas9 plasmid and sgRNA plasmid, 0.3 uM to 20 uM, 24 h (FIG. 44A/C)
measured.property: EC50

Form: compound = O=C(CCS(=O)(=O)c1ccc(Cl)cc1)Nc1nc(-c2ccncc2)cs1 [BRD7586] ; EC50 = 5.55 µM

---

Would you kindly list Normalized Z rep2 for each of these compounds?
Target: SpCas9 (Streptococcus pyogenes serotype M1)
Experiment: eGFP disruption assay, SpCas9, U2OS.eGFP.PEST cells
Assay type: cell-based
Conditions: replicate 2
Form: value (number only, do not type unit).

Form: compound = CNC(=O)c1sc(=S)n2c1[nH]c(=O)c1cc(Br)ccc12 [F083-0285] ; Normalized Z rep2 = −0.48

Form: compound = CN(C)S(=O)(=O)Nc1cnc(N2CCC(CCN3CCCCC3)CC2)c(C(=O)O)c1 [Compound F293-0962] ; Normalized Z rep2 = −0.33

Form: compound = CCn1c(=O)c(C(=O)Nc2nccc(C)n2)c(O)c2ccccc21 [Compound G650-0193] ; Normalized Z rep2 = −0.43

Form: compound = Cc1nc2ccccc2n1Cc1nnc2sc(-c3cccnc3)nn12 [Compound D727-0182] ; Normalized Z rep2 = 0.14

Form: compound = C=Cc1ccc(CSC2=NS(=O)(=O)c3ccccc3N2)cc1 [Compound K261-1443] ; Normalized Z rep2 = −0.19

Form: compound = Fc1cccc(-c2nn3c(-c4ccc5ccccc5n4)nnc3s2)c1 [D727-0740] ; Normalized Z rep2 = −0.08

Form: compound = COCCCNC(=O)CN1CCN(c2ccc(C(=O)O)cc2NC(=O)c2ccccc2Cl)CC1 [Compound F086-0033] ; Normalized Z rep2 = −0.24

Form: compound = CS(=O)(=O)Nc1cnc(N2CCC(C(N)=O)(N3CCCCC3)CC2)c(C(=O)O)c1 [Compound F293-0183] ; Normalized Z rep2 = −0.33

Form: compound = Nc1c(C(=O)N2CCCC2)sc(=S)n1Cc1ccccc1 [Compound F128-0041] ; Normalized Z rep2 = −0.15
